target: NACHT, LRR and PYD domains-containing protein 3 (Mus musculus); experiment: Inhibition of NLRP3 inflammasome activation in LPS/ATP-induced C57BL/6 mouse BMDMs assessed as reduction in IL-1beta secretion at 100 nM preincubated with LPS for 4 hrs followed by compound addition for 30 mins and further stimulated with ATP for 30 mins by ELISA relative to control; assay type: cell-based; conditions: BMDM, time 1.0 hrs
test-readout: inhibition (%)

INSERT INTO results (compound, test_readout, result_unit, number) VALUES
  ('C=C1C(=O)[C@]23[C@H](O)[C@H]1CC[C@H]2[C@]12C=CCC(C)(C)[C@H]1[C@H](O)[C@@]3(OCCC(=O)NC(C)C)OC2', 'inhibition', '%', 56.2),
  ('C=C1C(=O)[C@]23[C@H](O)[C@H]1CC[C@H]2[C@]12C=CCC(C)(C)[C@H]1[C@H](O)[C@@]3(O)OC2', 'inhibition', '%', 30.3),
  ('C=C1C(=O)[C@]23[C@H](O)[C@H]1CC[C@H]2[C@]12C=CCC(C)(C)[C@H]1[C@H](O)[C@@]3(OCc1nc(-c3ccccc3)cs1)OC2', 'inhibition', '%', 60.9),
  ('C=C1C(=O)[C@]23[C@H](O)[C@H]1CC[C@H]2[C@]12C=CCC(C)(C)[C@H]1[C@H](O)[C@@]3(OCc1ccc3ccccc3c1)OC2', 'inhibition', '%', 35.2),
  ('C=C1C(=O)[C@]23[C@H](O)[C@H]1CC[C@H]2[C@]12C=CCC(C)(C)[C@H]1[C@H](O)[C@@]3(OCCC(=O)NCCOC)OC2', 'inhibition', '%', 18),
  ('C=C1C(=O)[C@]23[C@H](O)[C@H]1CC[C@H]2[C@]12C=CCC(C)(C)[C@H]1[C@H](O)[C@@]3(OCc1nccs1)OC2', 'inhibition', '%', 46.2),
  ('C=C1C(=O)[C@]23[C@H](O)[C@H]1CC[C@H]2[C@]12C=CCC(C)(C)[C@H]1[C@H](O)[C@@]3(OCCCc1ccc(Cl)cc1)OC2', 'inhibition', '%', 7.3),
  ('C=C1C(=O)[C@]23[C@H](O)[C@H]1CC[C@H]2[C@]12C=CCC(C)(C)[C@H]1[C@H](O)[C@@]3(OCCC(=O)NCCC)OC2', 'inhibition', '%', 20.3),
  ('C=C1C(=O)[C@]23[C@H](O)[C@H]1CC[C@H]2[C@]12C=CCC(C)(C)[C@H]1[C@H](O)[C@@]3(OCCC(=O)NC1CC1)OC2', 'inhibition', '%', 33.3),
  ('C=C1C(=O)[C@]23[C@H](O)[C@H]1CC[C@H]2[C@]12C=CCC(C)(C)[C@H]1[C@H](O)[C@@]3(OCc1cocn1)OC2', 'inhibition', '%', 44.2),
  ('C=C1C(=O)[C@]23[C@H](OCc4ccc(Cl)cc4)[C@H]1CC[C@H]2[C@]12C=CCC(C)(C)[C@H]1[C@H](O)[C@@]3(O)OC2', 'inhibition', '%', 44.8),
  ('C=C1C(=O)[C@]23[C@H](O)[C@H]1CC[C@H]2[C@]12C=CCC(C)(C)[C@H]1[C@H](O)[C@@]3(OCCC(=O)NC)OC2', 'inhibition', '%', 27.2),
  ('C=C1C(=O)[C@]23[C@H](O)[C@H]1CC[C@H]2[C@]12C=CCC(C)(C)[C@H]1[C@H](O)[C@@]3(OCCC(=O)N1CCCCC1)OC2', 'inhibition', '%', 43.7),
  ('C=C1C(=O)[C@]23[C@H](O)[C@H]1CC[C@H]2[C@]12C=CCC(C)(C)[C@H]1[C@H](O)[C@@]3(OCCC(=O)NC1CCCCC1)OC2', 'inhibition', '%', 36.5),
  ('C=C1C(=O)[C@]23[C@H](OCc4ccccc4)[C@H]1CC[C@H]2[C@]12C=CCC(C)(C)[C@H]1[C@H](O)[C@@]3(O)OC2', 'inhibition', '%', 45.1),
  ('C=C1C(=O)[C@]23[C@H](OCc4ccc5ccccc5c4)[C@H]1CC[C@H]2[C@]12C=CCC(C)(C)[C@H]1[C@H](O)[C@@]3(O)OC2', 'inhibition', '%', 33.1),
  ('C=C1C(=O)[C@]23[C@H](O)[C@H]1CC[C@H]2[C@]12C=CCC(C)(C)[C@H]1[C@H](O)[C@@]3(OCc1ccncc1)OC2', 'inhibition', '%', 47.3),
  ('C=C1C(=O)[C@]23[C@H](O)[C@H]1CC[C@H]2[C@]12C=CCC(C)(C)[C@H]1[C@H](O)[C@@]3(OCCCC(=O)O)OC2', 'inhibition', '%', 57.1),
  ('C=C1C(=O)[C@]23[C@H](O)[C@H]1CC[C@H]2[C@]12C=CCC(C)(C)[C@H]1[C@H](O)[C@@]3(OCCC(=O)NC1CCOCC1)OC2', 'inhibition', '%', 18.5),
  ('C=C1C(=O)[C@]23[C@H](O)[C@H]1CC[C@H]2[C@]12C=CCC(C)(C)[C@H]1[C@H](O)[C@@]3(OCCCc1ccccc1)OC2', 'inhibition', '%', 24),
  ('C=C1C(=O)[C@]23[C@H](O)[C@H]1CC[C@H]2[C@]12C=CCC(C)(C)[C@H]1[C@H](O)[C@@]3(OCc1ccccc1)OC2', 'inhibition', '%', 42.5),
  ('C=C1C(=O)[C@]23[C@H](O)[C@H]1CC[C@H]2[C@]12C=CCC(C)(C)[C@H]1[C@H](O)[C@@]3(OCC(=O)O)OC2', 'inhibition', '%', 12.9),
  ('C=C1C(=O)[C@]23[C@H](O)[C@H]1CC[C@H]2[C@@]12CO[C@]3(O)[C@@H](O)[C@@H]1C(C)(C)CC[C@@H]2O [ORIDONIN]', 'inhibition', '%', 0.2),
  ('C=C1C(=O)[C@]23[C@H](O)[C@H]1CC[C@H]2[C@]12C=CCC(C)(C)[C@H]1[C@H](O)[C@@]3(OCc1ccc(Cl)cc1)OC2', 'inhibition', '%', 40.5),
  ('C=C1C(=O)[C@]23[C@H](O)[C@H]1CC[C@H]2[C@]12C=CCC(C)(C)[C@H]1[C@H](O)C3(OCc1cccnc1)OC2 (single isomer, unassigned)', 'inhibition', '%', 24.5);
